Source of measurements: ChEMBL document CHEMBL1143396

Entries and their Ki
- subject_of_test: Human immunodeficiency virus type 1 protease (Human immunodeficiency virus 1, UniProt Q72874, Q7K)
- test_details: Inhibition of HIV1 protease Q7K mutant by FRET method
- condition_notes: read-out: Ki

# compound_smiles, measure_unit, Ki
measured = [
    ("COc1ccc(S(=O)(=O)N(CC(C)C)C[C@@H](O)[C@H](Cc2ccccc2)NC(=O)/C=C(\\C)C(F)(F)F)cc1", "nM", 0.39),
    ("CCCCCN(C[C@@H](O)[C@H](Cc1ccccc1)NC(=O)[C@@H](O)C(C)C)S(=O)(=O)c1ccc(OC)cc1", "nM", 2.48),
    ("COc1cccc(S(=O)(=O)N(CC2CC2)C[C@@H](O)[C@H](Cc2ccccc2)NC(=O)c2cccc(C)n2)c1", "nM", 14600),
    ("O=C(N[C@@H](Cc1ccccc1)[C@H](O)CN(Cc1cccs1)S(=O)(=O)c1cc(F)c(F)cc1F)c1ccnnc1", "nM", 1060),
]
